These entries and their values trace back to PubChem BioAssay AID686979.

assay: qHTS for Inhibitors of human tyrosyl-DNA phosphodiesterase 1 (TDP1): qHTS in cells in presence of CPT; conditions: chicken DT40 Tdp1-/-;hTDP1 cells + 20 nM CPT, ATP luminescence, 48 h; series mostly up to 46.2 µM; further: nearly all actives have a fitted effect of over 55% in size
Among all 420,000 compounds or so, about 50,000 (12%) were called active. About 26% were inconclusive and are not listed. The call rests on the fitted dose curve; in most records, active means well fitted inhibition curve with a large enough effect; inconclusive means small, poorly fitted or top-dose-only effect; inactive means flat fitted curve, though single readings scatter. The entries come from a sample that favours actives as a whole.
# output must be one of true (1) = active, false (0) = inactive

Mol: CC(=O)Nc1cccc(-c2cc3nc(NCc4cccnc4)n(C)c(=O)c3s2)c1
Label class: false (0)
//
Mol: COc1cccc(-c2cc3nc(NCc4ccccc4OC)n(C)c(=O)c3s2)c1
Label class: true (1)
//
Mol: C=CCc1ccccc1OCC(=O)N/N=C/c1ccccc1OCC
Label class: false (0)

Request: Which outcome did this test record for the compound "C/C(N)=C(/C#N)C(=O)COC(=O)c1cc(-c2ccc(C)cc2)nc2ccccc12" ?
Result: false (0)

Request: Repeat with "Cc1cccc(OCC(=O)NCC(=O)N/N=C/c2ccc(N(C)C)cc2)c1"
Result: false (0)

Request: Repeat with "CCSCc1nc(N)nc(NCCc2ccccc2)n1"
Result: false (0)

###

test: qHTS for Inhibitors of human tyrosyl-DNA phosphodiesterase 1 (TDP1): qHTS in cells in presence of CPT; conditions: chicken DT40 Tdp1-/-;hTDP1 cells + 20 nM CPT, ATP luminescence, 48 h; series mostly up to 46.2 µM; further: nearly all actives have a fitted effect of over 55% in size
The campaign covered roughly 420,000 compounds. About 50,000 (12%) were called active. Another 26% or so got no clear call; they are omitted. The call rests on the fitted dose curve; in most records, active means well fitted inhibition curve with a large enough effect; inconclusive means small, poorly fitted or top-dose-only effect; inactive means flat fitted curve, though single readings scatter. Shown is part of a subset that was picked to be rich in actives.
# output must be one of Yes (active), No (inactive)

Compound: Clc1ccc(-c2cccc3nccn23)cc1
Label class: No

Request: Which outcome did this test record for the compound "COCCCNc1nc2c(-c3cccc(C)c3)nnn2c2ccc(Cl)cc12" ?
Result: Yes

Request: Repeat with "O=C(O)C#Cc1cccc2ccccc12"
Result: No

Request: Repeat with "Cc1cccc([C@@H]2[C@@H]3C(=O)N(Cc4ccccc4)C(=O)[C@@H]3[C@]3(Cc4ccc(Cl)cc4)C(=O)N(c4cccc(Cl)c4)C(=O)N23)c1"
Result: No

Request: Repeat with "CCc1c(C)nc2c(-c3ccccc3)c(C)nn2c1Nc1ccc(NC(C)=O)cc1"
Result: No

Request: Repeat with "CCCN(CCC)CCNC(=O)Cn1cnc2sc(C)c(S(=O)(=O)N3CCC(C)CC3)c2c1=O"
Result: No

Request: Repeat with Cc1ccc(-c2ccc(CN3C(C(C)C)C(=O)N(Cc4cn(CCC5OCCO5)nn4)CCS3(=O)=O)cc2)cc1 (centres undefined)
Result: Yes

Request: Repeat with "C[C@@H]1CN([C@H](C)CO)C(=O)CCCn2nncc2CO[C@@H]1CN(C)S(=O)(=O)c1cccc(C#N)c1"
Result: No

Request: Repeat with C[C@]12CCC(=O)C=C1C=CC1C2CC[C@@]2(C)C1CC[C@@]21CCC(=O)O1 (some centres undefined)
Result: Yes

###

experiment: qHTS for Inhibitors of human tyrosyl-DNA phosphodiesterase 1 (TDP1): qHTS in cells in presence of CPT; details: chicken DT40 Tdp1-/-;hTDP1 cells + 20 nM CPT, ATP luminescence, 48 h; series mostly up to 46.2 µM; further: nearly all actives have a fitted effect of over 55% in size; further: potency means the concentration at half of the fitted maximal effect
Screen size: about 420,000 compounds; about 50,000 (12%) were called active. Roughly 26% stayed inconclusive and do not appear here. Shown is part of a subset that was picked to be rich in actives.
Endpoint label: Potency

Compound: Cc1cc([N+](=O)[O-])c(=O)[nH]c1C
Result value: inactive

Compound: CC(C)COc1ccc(C(=O)NNC(=O)CCC(=O)c2cccs2)cc1
Result value: inactive

Compound: CCOC(=O)C1CCCN(C(=O)c2cccc3ccccc23)CC1 (configuration not stated)
Result value: inactive

Compound: O=C(NC(=S)Nc1ccc(Br)cc1F)C1CCCCC1
Result value: inactive

Compound: CCOC(=O)C1CCCN(C(=O)c2ccc(-n3ccc4ccccc43)s2)C1 (configuration not stated)
Result value: 18.4 µM (active)

Give Potency for each of the items listed below.
1. FC(F)(F)c1nnc2sc(-c3ccco3)nn12
2. Cc1cccc(Cn2cnc3c(N)c(C)c(C)cc32)c1
3. COc1ccc(N2CCN(C(=S)Nc3ccc(S(N)(=O)=O)cc3)CC2)cc1

Result:
1. inactive
2. inactive
3. inactive

###

experiment: qHTS for Inhibitors of human tyrosyl-DNA phosphodiesterase 1 (TDP1): qHTS in cells in presence of CPT; conditions: chicken DT40 Tdp1-/-;hTDP1 cells + 20 nM CPT, ATP luminescence, 48 h; series mostly up to 46.2 µM; further: nearly all actives have a fitted effect of over 55% in size
The whole screen tested about 420,000 compounds, of which about 50,000 (12%) were called active. Another 26% or so got no clear call; they are omitted. Calls come from the whole dose curve; as a rule, active = well fitted inhibition curve with a large enough effect; inconclusive = small, poorly fitted or top-dose-only effect; inactive = flat fitted curve, though single readings scatter. The list comes from a sample in which actives are over-represented; it also holds close analogues and randomly drawn compounds.
# output must be one of class 1 for active, class 0 for inactive

Compound: CCCCCn1c(=O)c(C(=O)OCC)c(Cl)c2ccccc21
Label class: class 0

Compound: CCC(C)[C@H](NC(=O)N1c2ccccc2NC(=O)[C@@H]1C(C)C)C(=O)N[C@@H](Cc1ccccc1)C(=O)O (some centres not stated)
Label class: class 0

Compound: Cc1ccc(Cl)cc1NC(=O)CSc1nccn1C
Label class: class 0

Compound: Cc1ccccc1NC(=O)c1cc(S(=O)(=O)Nc2cccc(C(=O)O)c2)ccc1Cl
Label class: class 0

Compound: O=C(NCc1ccccc1)c1cc(-c2cccc(Cl)c2)on1
Label class: class 0

Request: Which outcome did this test record for the compound "CN1CCN(c2ccc(S(=O)(=O)N3CCOCC3)cc2NC(=O)CCc2ccccc2)CC1" ?
Result: class 0

Request: Repeat with COc1cc(C)c(CN2CCc3nnc(C(C)NC(=O)c4cccnc4)n3CC2)cc1C (configuration not stated)
Result: class 0

Request: Repeat with "CCCCOc1ccc(NC(=O)c2cc3c(n(-c4ccc(Cl)cc4)c2=O)CCCC3=O)cc1"
Result: class 0

Request: Repeat with "O=C(O)Cc1ccc(NCc2ccccc2Cl)cc1"
Result: class 0

Request: Repeat with "O=C(Cc1ccc(F)cc1)N1CCN=C1SCc1cccc([N+](=O)[O-])c1"
Result: class 0

###

experiment: qHTS for Inhibitors of human tyrosyl-DNA phosphodiesterase 1 (TDP1): qHTS in cells in presence of CPT; conditions: chicken DT40 Tdp1-/-;hTDP1 cells + 20 nM CPT, ATP luminescence, 48 h; series mostly up to 46.2 µM; further: nearly all actives have a fitted effect of over 55% in size
Out of some 420,000 compounds screened, about 50,000 (12%) were called active. Another 26% or so got no clear call; they are omitted. The call rests on the fitted dose curve; in most records, active means well fitted inhibition curve with a large enough effect; inconclusive means small, poorly fitted or top-dose-only effect; inactive means flat fitted curve, though single readings scatter. The list comes from a sample in which actives are over-represented; it also holds close analogues and randomly drawn compounds.
# output must be one of yes = active, no = inactive

Request: Which outcome did this test record for the compound "N#Cc1ccc(-c2nc3c(Cl)cc(C(F)(F)F)cn3c2Cc2ccccc2C(F)(F)F)cc1" ?
Result: no

Request: Repeat with NC(=O)C1CCN(C(=O)CC2C(=O)NCCN2Cc2cccc(Oc3ccccc3)c2)CC1 (stereo not given)
Result: no

###

test: qHTS for Inhibitors of human tyrosyl-DNA phosphodiesterase 1 (TDP1): qHTS in cells in presence of CPT; settings: chicken DT40 Tdp1-/-;hTDP1 cells + 20 nM CPT, ATP luminescence, 48 h; series mostly up to 46.2 µM; further: nearly all actives have a fitted effect of over 55% in size
In all, about 420,000 compounds went through this assay and about 50,000 (12%) were called active. Another 26% or so got no clear call; they are omitted. Calls come from the whole dose curve; as a rule, active = well fitted inhibition curve with a large enough effect; inconclusive = small, poorly fitted or top-dose-only effect; inactive = flat fitted curve, though single readings scatter. The sample holds actives, similar compounds and a random draw of the others, so the mix is not that of the screen.
# output must be one of active, inactive

Example cases with answers are listed next.
Compound: O=C(NCc1cccc(Cl)c1)C1CCN(c2nnc(N3CCCC3=O)s2)CC1
Label class: inactive
//
Compound: OC(COc1ccc2ccccc2c1)CN1CCOCC1 (stereo unspecified)
Label class: inactive

Request: Which outcome did this test record for the compound "O=C(CCc1nnc2ccc(NCCCN3CCCC3=O)nn12)NCc1ccccc1Cl" ?
Result: inactive

Request: Repeat with "CCC(=O)Nc1ccccc1C(=O)N1CCN(Cc2ccccc2)CC1"
Result: inactive

Request: Repeat with "CC(=O)Nc1ccc(C(=O)CSc2nnc(Cc3ccccc3)o2)cc1"
Result: inactive

Request: Repeat with "Cc1ccsc1-c1cc(C(=O)O)c2c(ccc3ccccc32)n1"
Result: inactive

Request: Repeat with "O=C(N/N=C/c1cccc(OC(=O)c2ccc([N+](=O)[O-])cc2)c1)c1cccnc1"
Result: inactive

###

assay: qHTS for Inhibitors of human tyrosyl-DNA phosphodiesterase 1 (TDP1): qHTS in cells in presence of CPT; details: chicken DT40 Tdp1-/-;hTDP1 cells + 20 nM CPT, ATP luminescence, 48 h; series mostly up to 46.2 µM; further: nearly all actives have a fitted effect of over 55% in size
The whole screen tested about 420,000 compounds, of which about 50,000 (12%) were called active. Not shown: some 26% with an inconclusive outcome. The call rests on the fitted dose curve; in most records, active means well fitted inhibition curve with a large enough effect; inconclusive means small, poorly fitted or top-dose-only effect; inactive means flat fitted curve, though single readings scatter. The sample holds actives, similar compounds and a random draw of the others, so the mix is not that of the screen.
# output must be one of active, inactive

Example cases with answers are listed next.
Compound: COc1ccc(S(=O)(=O)N2CCC(C(=O)OCC(=O)c3ccccc3)CC2)cc1[N+](=O)[O-]
Label class: inactive
--
Compound: COc1ccc(NC(=O)CN(C)C(=O)c2cc(C3CC3)nn2-c2ccccc2)cc1
Label class: inactive
--
Compound: COc1ccccc1OCCOc1ccc(/C=N/n2cnnc2)cc1
Label class: inactive
--
Compound: Cc1ccc(CNC(=O)Cn2c(=O)ccc3cc(S(=O)(=O)N4CCCC4)ccc32)cc1
Label class: inactive
--
Compound: CCCCc1ccc(NC(=O)NCc2cccnc2)cc1
Label class: inactive

Request: Which outcome did this test record for the compound "CN(c1ccccc1)S(=O)(=O)c1ccc2[nH]c(=O)[nH]c2c1" ?
Result: inactive

Request: Repeat with "Cc1cc(C(C)(C)C)cc(C)c1N"
Result: inactive

Request: Repeat with CCC(=O)N1CCc2cc(Br)c(S(=O)(=O)NCCN3CCCCC3CC)cc21 (stereo unspecified)
Result: inactive

Request: Repeat with "N#Cc1nc(COc2ccc(Cl)cc2)oc1N1CCCC1"
Result: inactive

Request: Repeat with "CCCNC(=S)N1CCC(NC(=O)c2ccc(OC)cc2)CC1"
Result: inactive

Request: Repeat with "CCN1C(=O)[C@H]2[C@@H](c3ccc(SC4CCCCC4)c(OC)c3)N[C@@](Cc3ccccc3)(C(=O)OC)[C@H]2C1=O"
Result: active

Request: Repeat with "Cc1c(Cl)cccc1NC(=O)[C@@]1(CC(=O)O)CC(/C=C/c2ccccc2)=NO1"
Result: inactive

Request: Repeat with "O=C(OCC(=O)N1CCN(c2ccccc2)CC1)c1ccc([N+](=O)[O-])s1"
Result: active

Request: Repeat with "O=c1cc(-c2ccccc2)n2c(SCc3ccccc3)nnc2[nH]1"
Result: inactive

Request: Repeat with "CCN1C(=O)[C@H]2[C@@H](c3ccc(-c4ccc(OC)cc4)cc3)N[C@@](Cc3ccccc3)(C(=O)OC)[C@H]2C1=O"
Result: active

Request: Repeat with CC(=O)c1ccc(OCC(=O)N(C)C2CCS(=O)(=O)C2)cc1 (stereo unspecified)
Result: inactive

Request: Repeat with O=C(CN1C(=O)CC(c2ccccc2)S(=O)(=O)c2ccccc21)NC1CCCC1 (stereo unspecified)
Result: inactive

Request: Repeat with "Cn1c(Cc2cccs2)nnc1SCC(=O)Nc1ccccc1"
Result: inactive

Request: Repeat with "COc1ccc(C(=O)COC(=O)c2ccc([N+](=O)[O-])s2)cc1OC"
Result: inactive

Request: Repeat with "CCOc1ccc(NC(=O)CN(C)C(=O)c2cccc(S(=O)(=O)N3CCCC3)c2)cc1OCC"
Result: inactive

Request: Repeat with "NC(=O)C1CCN(C(=O)c2ccc(C(F)(F)F)cc2)CC1"
Result: inactive

Request: Repeat with "CCCCOC(=O)Nc1nnc(CC(=O)NCc2ccccc2)s1"
Result: inactive

Request: Repeat with "COC(=O)c1ccc(S(=O)(=O)N2CCC(c3nc4ccccc4o3)CC2)cc1"
Result: inactive
